Where these numbers come from: patent US20260139066A1

- subject-of-test: T1, canine urokinase plasminogen activator receptor, recombinant protein (canine)
- T1 construct: Recombinant c uPAR produced by VIB (Ghent); also called c uPAR; canine uPAR
- T1 chain: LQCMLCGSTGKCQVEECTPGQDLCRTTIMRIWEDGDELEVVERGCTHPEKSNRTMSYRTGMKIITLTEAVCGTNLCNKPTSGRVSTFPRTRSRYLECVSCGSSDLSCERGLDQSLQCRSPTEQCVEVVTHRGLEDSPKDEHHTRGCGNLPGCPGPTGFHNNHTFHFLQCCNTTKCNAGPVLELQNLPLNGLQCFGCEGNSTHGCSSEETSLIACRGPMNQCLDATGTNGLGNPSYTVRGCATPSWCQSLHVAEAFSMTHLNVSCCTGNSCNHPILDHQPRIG
- assay-summary: SPR (Biacore T200) kinetics, purified sdAb 150-0.62 nM, c uPAR immobilised on CM5, 1:1 fit; column kd
value-kind: koff (s⁻¹)
Enter your answer as a number in s⁻¹; do not include the unit.

Recorded koff, per entry:
sdAb 17 (clone 5B7) with carboxy-terminal hexahistidine tag (VHH, C-terminal 6His for purified-protein SPR; koff screen used bacterial extracts; also called Nr 17) VHH: QVQLQESGGGLVQPGGSLRLSCAVSGSTLEYYGIGWFRQAPGKEREGVSCISSSDGSTYYADSVKGRFTISRDNAKNTVYLQMNSLKPEDTAVYYCATRGASCYYTGSYSLGYDYWGQGTQVTVSS    0.0019
sdAb 16 (clone 5A5) with carboxy-terminal hexahistidine tag (VHH, C-terminal 6His for purified-protein SPR; koff screen used bacterial extracts; also called Nr 16) VHH: QVQLQESGGGLVQPGGSLRLSCAISGFTLDYYGIGWFRQAPGKEREGVSCISSSDGSTYYADSVKGRFTISRDNAKNTVYLQMNSLKPEDTAVYYCATRGASCYYSGSYSLGYDYWGQGTQVTVSS    0.0031
sdAb 18 (clone 5H2) with carboxy-terminal hexahistidine tag (VHH, C-terminal 6His for purified-protein SPR; koff screen used bacterial extracts; also called Nr 18) VHH: QVQLQESGGGLAQPGGSLRLSCTASGFTSDYYGIGWFRQAPGKEREGVSCISSSDGSTYYADSVKGRFTISRDNAKNTVYLQMNSLKPEDTAVYYCATRGASCYYTGSYSLGYDYWGQGTQVTVSS    0.0035

Here is another binder to look at.
Problem: koff for sdAb 15 (clone 5A4) with carboxy-terminal hexahistidine tag (VHH, Lead compound; C-terminal 6His for purified-protein SPR; koff screen used bacterial extracts of the pMECS-GG construct; also called sdAb15.6His; Nr 15) VHH: QVQLQESGGGWVQPGGSLRLSCAASGFTLDYYGIGWFRQAPGKEREGVSCISSSDGSTYYADSVKGRFTISRDNAKNTVYLQMNSLKPEDTAVYYCATRGASCYYTGSYSLGYDYWGQGTQVTVSS ?
Solution: 0.002
